- Test system: NCI-H460 lung
- measurementDescription: NCI tumour cell line growth inhibition, 48 h
Record form. Attribute: TGI. Fill in for each entry.
# value in µM; strip the unit string

Short answer please: TGI, NCI-H460 lung, entry CCCCCCCCCCN=C(c1ccc(N(C)C)cc1)c1ccc(N(C)C)cc1
24.5

Short answer please: TGI, NCI-H460 lung, entry O=C1/C(=C\c2cccc(Oc3ccccc3)c2)S(=O)(=O)C(c2ccccc2)N1Cc1ccccc1 (centres undefined)
40.9

Short answer please: TGI, NCI-H460 lung, entry O=C(/C=C/c1ccccc1)CC(c1ccccc1)N1CCOCC1 (centres undefined)
33.2

Short answer please: TGI, NCI-H460 lung, entry CO[C@]12CC(=O)C3(C(C[C@H]4CC5CC=C6C[C@@H](OC(C)=O)CC[C@]6(OC(C)=O)C5C[C@@]43C)C1)C1C[C@H]3[C@@H]4CC=C5C[C@@H](OC(C)=O)CC[C@]5(OC(C)=O)[C@H]4CC[C@]3(C)C12 (some centres undefined)
47.8

Provenance of the data: PubChem BioAssay (NCI)
